ASSAY_NAME: Inhibition of bovine liver beta-glucosidase assessed as residual hydrolytic activity after 10 to 30 mins by spectrophotometric analysis
Design: species or system Bos taurus
pKi: −log10 of the molar value.
Would you mind telling me the reported pKi of each entry?

Given the entry CC(C)(C)OC(=O)NCCCCCCCCCN[C@@H]1[C@@H](O)[C@@H](O)[C@H](O)[C@H]2COC(=O)N21 , report its measured pKi.
3.52 to 3.85

Given the entry CCCCCCCCN[C@@H]1[C@@H](O)[C@@H](O)[C@H](O)[C@H]2COC(=O)N21 , report its measured pKi.
3.59

Given the entry N[C@@H]1[C@@H](O)[C@@H](O)[C@H](O)[C@H]2COC(=O)N12 , report its measured pKi.
3.70 to 4.70

Given the entry [N-]=[N+]=NCCCCCCCCCN[C@@H]1[C@@H](O)[C@@H](O)[C@H](O)[C@H]2COC(=O)N21 , report its measured pKi.
3.52 to 3.85

Given the entry [N-]=[N+]=NCCCCCCN[C@@H]1[C@@H](O)[C@@H](O)[C@H](O)[C@H]2COC(=O)N21 , report its measured pKi.
3.52 to 3.85

Given the entry CCCc1cn(CCCCCCN[C@@H]2[C@@H](O)[C@@H](O)[C@H](O)[C@H]3COC(=O)N32)nn1 , report its measured pKi.
3.52 to 3.85
